# System: 379773-124-R-J2-PDC complex spheroids, viability % test/control
# assay method text: Anticancer human tumor 379773-124-R-J2-PDC patient-derived endometrial carcinoma cell line growth inhibition [CLK]; active = viability on the fitted dose curve at most 10% of control; inactive = the rest
# condition: second compound 0.0316 µM; first compound 0.00949 µM
Just give me one of these, please: TRUE for active, FALSE for inactive

Check out these entries, answers already filled in.
[
  {
    "compound": "CC(C)CC(NC(=O)C(Cc1ccccc1)NC(=O)c1cnccn1)B(O)O (stereo not drawn) + CN1CCN(c2cc(C(=O)Nc3cc4cc(-c5cnn(C)c5)ccc4cn3)ccn2)CC1",
    "target or test system": "379773-124-R-J2-PDC complex spheroids, viability % test/control",
    "qualitative label": "TRUE"
  },
  {
    "compound": "NC(=O)C(=Cn1cnc(-c2cc(C(F)(F)F)cc(C(F)(F)F)c2)n1)c1cncnc1 + CN1CCN(c2cc(C(=O)Nc3cc4cc(-c5cnn(C)c5)ccc4cn3)ccn2)CC1",
    "target or test system": "379773-124-R-J2-PDC complex spheroids, viability % test/control",
    "qualitative label": "FALSE"
  }
]

Okay, now this compound:
Any idea what this test logged for CC(C)CC(NC(=O)C(Cc1ccccc1)NC(=O)c1cnccn1)B(O)O (stereo not drawn) + CNC(=O)c1ccc(Nc2nc(OC3CCCC3)c3c(-c4ccc5nc(C)oc5c4)c[nH]c3n2)c(OC)c1 ? TRUE

====

# Tested on: 379773-124-R-J2-PDC complex spheroids, viability % test/control
# assay method text: Anticancer human tumor 379773-124-R-J2-PDC cell line growth inhibition [CLK];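 also: compound exposure lasted seven days before the viability readout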
# condition: curve of first compound; second compound 0.1 µM
Reported IC50 values are given for each entry in this list.

Below, each entry is followed by its recorded IC50 result.
[
  {
    "compound": "Nc1ccn(C2OC(CO)C(O)C2(F)F)c(=O)n1 (stereo not given) + CNC(=O)c1ccc(Nc2nc(OC3CCCC3)c3c(-c4ccc5nc(C)oc5c4)c[nH]c3n2)c(OC)c1",
    "reading": "< 31.6 nM"
  },
  {
    "compound": "COc1ccc([C@@H](O)c2cc(-c3ncnc4cc(N5CCOCC5)ccc34)c(F)cc2Cl)nn1 + CNC(=O)c1ccc(Nc2nc(OC3CCCC3)c3c(-c4ccc5nc(C)oc5c4)c[nH]c3n2)c(OC)c1",
    "reading": "< 31.6 nM"
  },
  {
    "compound": "COC1C=CCC(C)C(C)S(=O)(=O)NC(=O)c2ccc3c(c2)N(CC2CCC21)CC1(CCCc2cc(Cl)ccc21)CO3 (stereo not given) + CNC(=O)c1ccc(Nc2nc(OC3CCCC3)c3c(-c4ccc5nc(C)oc5c4)c[nH]c3n2)c(OC)c1",
    "reading": "< 31.6 nM"
  },
  {
    "compound": "CCN1CCN(Cc2ccc(Nc3ncc(F)c(-c4cc(F)c5nc(C)n(C(C)C)c5c4)n3)nc2)CC1 + CN1CCN(c2cc(C(=O)Nc3cc4cc(-c5cnn(C)c5)ccc4cn3)ccn2)CC1",
    "reading": "> 1000 nM"
  },
  {
    "compound": "C=CC(=O)N1CCN(c2nc(=O)n(-c3c(C)ccnc3C(C)C)c3nc(-c4c(O)cccc4F)c(F)cc23)C(C)C1 (stereo not given) + CN1CCN(c2cc(C(=O)Nc3cc4cc(-c5cnn(C)c5)ccc4cn3)ccn2)CC1",
    "reading": "> 10000 nM"
  }
]

So what IC50 did CC(Nc1ccc2c(c1)OCCn1cc(N3C(=O)OCC3C(F)F)nc1-2)C(N)=O (stereo not given) + CNC(=O)c1ccc(Nc2nc(OC3CCCC3)c3c(-c4ccc5nc(C)oc5c4)c[nH]c3n2)c(OC)c1 get with 379773-124-R-J2-PDC complex spheroids, viability % test/control? < 31.6 nM

So what IC50 did CC(=O)O[C@H]1C(=O)[C@@]2(C)[C@H]([C@H](OC(=O)c3ccccc3)[C@]3(O)C[C@H](OC(=O)[C@H](O)[C@@H](NC(=O)c4ccccc4)c4ccccc4)C(C)=C1C3(C)C)[C@]1(OC(C)=O)CO[C@@H]1C[C@@H]2O + CNC(=O)c1ccc(Nc2nc(OC3CCCC3)c3c(-c4ccc5nc(C)oc5c4)c[nH]c3n2)c(OC)c1 get with 379773-124-R-J2-PDC complex spheroids, viability % test/control? < 31.6 nM

So what IC50 did CC(CO)NC(=O)c1cc(-c2ccc(Cl)cc2)nn(-c2cnn(C)c2)c1=O (stereo not given) + CN1CCN(c2cc(C(=O)Nc3cc4cc(-c5cnn(C)c5)ccc4cn3)ccn2)CC1 get with 379773-124-R-J2-PDC complex spheroids, viability % test/control? > 10000 nM

So what IC50 did Cn1ncnc1[C@H]1c2n[nH]c(=O)c3cc(F)cc(c23)N[C@@H]1c1ccc(F)cc1 + CN1CCN(c2cc(C(=O)Nc3cc4cc(-c5cnn(C)c5)ccc4cn3)ccn2)CC1 get with 379773-124-R-J2-PDC complex spheroids, viability % test/control? 22.2 nM

So what IC50 did Nc1ccccc1NC(=O)c1ccc(CNC(=O)OCc2cccnc2)cc1 + CN1CCN(c2cc(C(=O)Nc3cc4cc(-c5cnn(C)c5)ccc4cn3)ccn2)CC1 get with 379773-124-R-J2-PDC complex spheroids, viability % test/control? 1970 nM

====

# Tested on: 379773-124-R-J2-PDC complex spheroids, viability % test/control
# assay method text: Anticancer human tumor 379773-124-R-J2-PDC cell line growth inhibition [CLK];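 also: compound exposure lasted seven days before the viability readout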;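 as to viability, T/C: 100% = DMSO vehicle control wells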
# condition: second compound 0.316 µM; first compound 0.1 µM; stronger effect = lower value
measured property: viability, T/C

Below, each entry is followed by its recorded viability, T/C result.
[
  {
    "compound": "Nc1ccccc1NC(=O)c1ccc(CNC(=O)OCc2cccnc2)cc1 + CNC(=O)c1ccc(Nc2nc(OC3CCCC3)c3c(-c4ccc5nc(C)oc5c4)c[nH]c3n2)c(OC)c1",
    "viability, T/C": "40.2%"
  },
  {
    "compound": "COc1ccc([C@@H](O)c2cc(-c3ncnc4cc(N5CCOCC5)ccc34)c(F)cc2Cl)nn1 + CNC(=O)c1ccc(Nc2nc(OC3CCCC3)c3c(-c4ccc5nc(C)oc5c4)c[nH]c3n2)c(OC)c1",
    "viability, T/C": "38%"
  }
]

// returns reported viability, T/C for input COc1ccc([C@@H](O)c2cc(-c3ncnc4cc(N5CCOCC5)ccc34)c(F)cc2Cl)nn1 + CN1CCN(c2cc(C(=O)Nc3cc4cc(-c5cnn(C)c5)ccc4cn3)ccn2)CC1 16.6%

// returns reported viability, T/C for input CC1COCCN1c1cc(C2(S(C)(=N)=O)CC2)nc(-c2ccnc3[nH]ccc23)n1 (stereo not given) + CN1CCN(c2cc(C(=O)Nc3cc4cc(-c5cnn(C)c5)ccc4cn3)ccn2)CC1 26.2%

// returns reported viability, T/C for input CC1(C)CCC(CN2CCN(c3ccc(C(=O)NS(=O)(=O)c4ccc(NCC5CCOCC5)c([N+](=O)[O-])c4)c(Oc4cnc5[nH]ccc5c4)c3)CC2)=C(c2ccc(Cl)cc2)C1 + CNC(=O)c1ccc(Nc2nc(OC3CCCC3)c3c(-c4ccc5nc(C)oc5c4)c[nH]c3n2)c(OC)c1 33.2%

====

# Tested on: 379773-124-R-J2-PDC complex spheroids, viability % test/control
# assay method text: Anticancer human tumor 379773-124-R-J2-PDC cell line growth inhibition [CLK];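 also: compound exposure lasted seven days before the viability readout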;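 as to viability, T/C: 100% = DMSO vehicle control wells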
# condition: second compound 3.16 µM; first compound 0.00949 µM; stronger effect = lower value
Reported viability, T/C values are given for each entry in this list.
Kindly answer with a numeric value in %, unit omitted.

Below, each entry is followed by its recorded viability, T/C result.
[
  {
    "compound": "NC(=O)C(=Cn1cnc(-c2cc(C(F)(F)F)cc(C(F)(F)F)c2)n1)c1cncnc1 + CNC(=O)c1ccc(Nc2nc(OC3CCCC3)c3c(-c4ccc5nc(C)oc5c4)c[nH]c3n2)c(OC)c1",
    "target or test system": "379773-124-R-J2-PDC complex spheroids, viability % test/control",
    "viability, T/C / %": 30.1
  },
  {
    "compound": "C=CC(=O)Nc1cc(Nc2nccc(-c3cn(C)c4ccccc34)n2)c(OC)cc1N(C)CCN(C)C + CNC(=O)c1ccc(Nc2nc(OC3CCCC3)c3c(-c4ccc5nc(C)oc5c4)c[nH]c3n2)c(OC)c1",
    "target or test system": "379773-124-R-J2-PDC complex spheroids, viability % test/control",
    "viability, T/C / %": 32.5
  }
]

# context switch: different compound, same viability, T/C
// returns reported viability, T/C for input CC(C)CC(NC(=O)C(Cc1ccccc1)NC(=O)c1cnccn1)B(O)O (stereo not drawn) + CN1CCN(c2cc(C(=O)Nc3cc4cc(-c5cnn(C)c5)ccc4cn3)ccn2)CC1 0.24
